biological target: EGLN2; assay: cell-based or functional assay
Where no end group is shown, it is not given here.
Provide the reported Activity (%)* of each item.
// note: answer is a bare numeric in %

Activity (%)* reported for this binder DTDLDLEARAPYIPADDDFQ [DTDLDLEARApYIPADDDFQ] : 78.6

Activity (%)* reported for this binder DTDLDVEAVAPYIPADDDFQ (not fully specified; printed as DTDLDVEAVApYIPADDDFQ) [DTDLDVEAVApYIPADDDFQ] : 16.6

Activity (%)* reported for this binder DTDLDLEAIAPYIPADDDFQ [DTDLDLEAIApYIPADDDFQ] : 89

Activity (%)* reported for this binder DTDLDCEALAPYIPADDDFQ [DTDLDCEALApYIPADDDFQ] : 48.8

Activity (%)* reported for this binder DTDLDHEALAPYIPADDDFQ [DTDLDHEALApYIPADDDFQ] : 21.5

Activity (%)* reported for this binder DTDLDREALAPYIPADDDFQ (not fully specified; printed as DTDLDREALApYIPADDDFQ) [DTDLDREALApYIPADDDFQ] : 15.7

Activity (%)* reported for this binder DTDLDSEALAPYIPADDDFQ (not fully specified; printed as DTDLDSEALApYIPADDDFQ) [DTDLDSEALApYIPADDDFQ] : 23.8

Activity (%)* reported for this binder DTDLDLEASAPYIPADDDFQ [DTDLDLEASApYIPADDDFQ] : 31.6

Activity (%)* reported for this binder DTDLDDEALAPYIPADDDFQ [DTDLDDEALApYIPADDDFQ] : 42.8

Activity (%)* reported for this binder DTDLDTEAFAPYIPADDDFQ (not fully specified; printed as DTDLDTEAFApYIPADDDFQ) [DTDLDTEAFApYIPADDDFQ] : 28.5

Activity (%)* reported for this binder DTDLDLEAEAPYIPADDDFQ [DTDLDLEAEApYIPADDDFQ] : 13.2

Activity (%)* reported for this binder DTDLDLEACAPYIPADDDFQ [DTDLDLEACApYIPADDDFQ] : 40.4

Activity (%)* reported for this binder DTDLDLEAFAPYIPADDDFQ [DTDLDLEAFApYIPADDDFQ] : 73.9

Activity (%)* reported for this binder DTDLDLEMLCPYIPMDDDFQ (not fully specified; printed as DTDLDLEMLCpYIPMDDDFQ) [DTDLDLEMLCpYIPMDDDFQ] : 0.4

Activity (%)* reported for this binder DTDLDLEMLQPYIPMDDDFQ (not fully specified; printed as DTDLDLEMLQpYIPMDDDFQ) [DTDLDLEMLQpYIPMDDDFQ] : 38.1

Activity (%)* reported for this binder DTDLDLEAWAPYIPADDDFQ (not fully specified; printed as DTDLDLEAWApYIPADDDFQ) [DTDLDLEAWApYIPADDDFQ] : 42.4

Activity (%)* reported for this binder DTDLDYEALAPYIPADDDFQ (not fully specified; printed as DTDLDYEALApYIPADDDFQ) [DTDLDYEALApYIPADDDFQ] : 108

Activity (%)* reported for this binder DTDLDIEANAPYIPADDDFQ [DTDLDIEANApYIPADDDFQ] : 34.4

Activity (%)* reported for this binder DTDLDLEMLMPYIPMDDDFQ (not fully specified; printed as DTDLDLEMLMpYIPMDDDFQ) [DTDLDLEMLMpYIPMDDDFQ] : 27.8

Activity (%)* reported for this binder DTDLDVEAYAPYIPADDDFQ (not fully specified; printed as DTDLDVEAYApYIPADDDFQ) [DTDLDVEAYApYIPADDDFQ] : 32.4

Activity (%)* reported for this binder DTDLDNEALAPYIPADDDFQ (not fully specified; printed as DTDLDNEALApYIPADDDFQ) [DTDLDNEALApYIPADDDFQ] : 21.4

Activity (%)* reported for this binder DTDLDAEATAPYIPADDDFQ [DTDLDAEATApYIPADDDFQ] : 19.4

Activity (%)* reported for this binder DTDLDMEALAPYIPADDDFQ (not fully specified; printed as DTDLDMEALApYIPADDDFQ) [DTDLDMEALApYIPADDDFQ] : 79.1
